# ASSAY_NOTES: activity coefficient (dimensionless); of the first substance listed, at infinite dilution; xn = mol fraction of the nth substance listed
# CONDITIONS_USED: 333.15 K; Liquid; Chromatography; x1 = 0
Kind request: treat 4 as inclusive, so activity coefficient at 4 or higher is condition met, anything lower is condition not met.

COMPOUND	LABEL_VALUE
CC1CCCC1 [methylcyclopentane] + CCCOC[n+]1ccn(Cc2ccccc2)c1.O=S(=O)([N-]S(=O)(=O)C(F)(F)F)C(F)(F)F	condition met
CC(C)CO [2-methyl-1-propanol] + CCCCCCCCn1cc[n+](COCCCOC[n+]2ccn(CCCCCCCC)c2C)c1C.O=S(=O)([N-]S(=O)(=O)C(F)(F)F)C(F)(F)F.O=S(=O)([N-]S(=O)(=O)C(F)(F)F)C(F)(F)F	condition not met
C[N+](=O)[O-] [nitromethane] + CCCCCCCCn1cc[n+](COCCC)c1C.N#C[N-]C#N	condition not met
CCCCCCCC [octane] + CCCOC[n+]1ccn(Cc2ccccc2)c1.O=S(=O)([N-]S(=O)(=O)C(F)(F)F)C(F)(F)F	condition met
C#CCCCCC [1-heptyne] + CCCCCCCCn1cc[n+](COCCC)c1C.O=S(=O)([N-]S(=O)(=O)C(F)(F)F)C(F)(F)F	condition not met
CC(C)O [propan-2-ol] + N#C[N-]C#N.N#C[N-]C#N.c1ccc(Cn2cc[n+](COCCCOC[n+]3ccn(Cc4ccccc4)c3)c2)cc1	condition not met

In: Determine whether this compound has activity coefficient no lower than 4: CC(C)O [propan-2-ol] + CCCOC[n+]1ccn(Cc2ccccc2)c1.F[B-](F)(F)F
Out: condition not met

In: Has C1CCCCCC1 [cycloheptane] + Cn1cc[n+](COCCCOC[n+]2ccn(C)c2)c1.O=S(=O)([N-]S(=O)(=O)C(F)(F)F)C(F)(F)F.O=S(=O)([N-]S(=O)(=O)C(F)(F)F)C(F)(F)F a recorded activity coefficient greater than or equal to 4?
Out: condition met

In: I'd appreciate it if you could say whether CCCCCCCCCC [decane] + CCCCCCCCn1cc[n+](COCCC)c1C.O=S(=O)([N-]S(=O)(=O)C(F)(F)F)C(F)(F)F has activity coefficient at least equal to 4.
Out: condition met

In: Is activity coefficient at least 4? Consider CCCC(C)=O [pentan-2-one] + CCCOC[n+]1ccn(Cc2ccccc2)c1.O=S(=O)([N-]S(=O)(=O)C(F)(F)F)C(F)(F)F
Out: condition not met

In: Exam item: decide whether the reported activity coefficient for ClCCl [dichloromethane] + CCCOC[n+]1ccn(Cc2ccccc2)c1.F[B-](F)(F)F is at least 4.
Out: condition not met

In: Reported activity coefficient reaches at least 4 for CCCCCCCCCCC [undecane] + CCCOC[n+]1ccn(Cc2ccccc2)c1.N#C[N-]C#N ?
Out: condition met

In: Check if activity coefficient >= 4 (inclusive). Item: C#CCCCC [1-hexyne] + Cn1cc[n+](COCCCOC[n+]2ccn(C)c2)c1.O=S(=O)([N-]S(=O)(=O)C(F)(F)F)C(F)(F)F.O=S(=O)([N-]S(=O)(=O)C(F)(F)F)C(F)(F)F
Out: condition not met

###

# ASSAY_NOTES: activity coefficient (dimensionless); of the first substance listed, at infinite dilution; xn = mol fraction of the nth substance listed
# CONDITIONS_USED: 333.15 K; Liquid; Chromatography; x1 = 0
PARAMETER_MEASURED: activity coefficient
Would you mind answering with just the numeric figure?

COMPOUND	activity coefficient
Cc1ccccc1 [toluene] + CCCCCCCCn1cc[n+](COCCC)c1C.O=S(=O)([N-]S(=O)(=O)C(F)(F)F)C(F)(F)F	0.76
CCCCCCCC [octane] + CN(C)c1cc[n+](COCCCOC[n+]2ccc(N(C)C)cc2)cc1.O=S(=O)([N-]S(=O)(=O)C(F)(F)F)C(F)(F)F.O=S(=O)([N-]S(=O)(=O)C(F)(F)F)C(F)(F)F	34.5
CCCCO [butan-1-ol] + CN(C)c1cc[n+](COCCCOC[n+]2ccc(N(C)C)cc2)cc1.O=S(=O)([N-]S(=O)(=O)C(F)(F)F)C(F)(F)F.O=S(=O)([N-]S(=O)(=O)C(F)(F)F)C(F)(F)F	1.64

In: Identify measured activity coefficient associated with CC1CCCCC1 [methylcyclohexane] + CCCCCCCCn1cc[n+](COCCC)c1C.O=S(=O)([N-]S(=O)(=O)C(F)(F)F)C(F)(F)F
Out: 2.91

In: Give a short answer stating reported activity coefficient for CCCCCCCCCCCC [dodecane] + CCCOC[n+]1ccn(C)c1.N#C[N-]C#N .
Out: 716

In: Recall and state the measured activity coefficient for C#CCCCCC [1-heptyne] + CCCCCCCCn1cc[n+](COCCC)c1C.N#C[N-]C#N .
Out: 2.09

###

# ASSAY_NOTES: activity coefficient (dimensionless); of the first substance listed, at infinite dilution; xn = mol fraction of the nth substance listed
# CONDITIONS_USED: 323.15 K; Liquid; Chromatography; x1 = 0
PARAMETER_MEASURED: activity coefficient
Just the number, please.

The cases that follow already have their activity coefficient on record.
MOLECULE	activity coefficient
C1CCCCC1 [cyclohexane] + Cn1cc[n+](COCCCOC[n+]2ccn(C)c2)c1.O=S(=O)([N-]S(=O)(=O)C(F)(F)F)C(F)(F)F.O=S(=O)([N-]S(=O)(=O)C(F)(F)F)C(F)(F)F	17.6
CC(C)O [propan-2-ol] + Cn1cc[n+](COCCCOC[n+]2ccn(C)c2)c1.O=S(=O)([N-]S(=O)(=O)C(F)(F)F)C(F)(F)F.O=S(=O)([N-]S(=O)(=O)C(F)(F)F)C(F)(F)F	1.31

In: Quote activity coefficient reported for CO [methanol] + CCCOC[n+]1ccn(C)c1.F[B-](F)(F)F please.
Out: 1.29

In: Give recorded activity coefficient. Cc1ccccc1C [1,2-dimethylbenzene] + CCCOC[n+]1ccn(Cc2ccccc2)c1.N#C[N-]C#N
Out: 3.05

In: Specify measured activity coefficient for CCc1ccccc1 [ethylbenzene] + CN(C)c1cc[n+](COCCCOC[n+]2ccc(N(C)C)cc2)cc1.O=S(=O)([N-]S(=O)(=O)C(F)(F)F)C(F)(F)F.O=S(=O)([N-]S(=O)(=O)C(F)(F)F)C(F)(F)F .
Out: 1.46

In: Please supply the value of reported activity coefficient for the item ClC(Cl)Cl [trichloromethane] + CCCOC[n+]1ccn(C)c1.F[B-](F)(F)F
Out: 1.74

In: Entry CC(C)O [propan-2-ol] + CN(C)c1cc[n+](COCCCOC[n+]2ccc(N(C)C)cc2)cc1.O=S(=O)([N-]S(=O)(=O)C(F)(F)F)C(F)(F)F.O=S(=O)([N-]S(=O)(=O)C(F)(F)F)C(F)(F)F needs its activity coefficient filled in; supply it.
Out: 1.42

In: Recall and state the measured activity coefficient for CCc1ccccc1 [ethylbenzene] + CCCOC[n+]1ccc(N(C)C)cc1.O=S(=O)([N-]S(=O)(=O)C(F)(F)F)C(F)(F)F .
Out: 1.45

###

# ASSAY_NOTES: activity coefficient (dimensionless); of the first substance listed, at infinite dilution; xn = mol fraction of the nth substance listed
# CONDITIONS_USED: 323.15 K; Liquid; Chromatography; x1 = 0
PARAMETER_MEASURED: activity coefficient
# answer = number (no unit)

COMPOUND	activity coefficient
CC#N [acetonitrile] + CCCOC[n+]1ccn(C)c1.F[B-](F)(F)F	0.73

In: Hello, please tell me recorded activity coefficient for this one: CCCCCCCC [octane] + CN(C)c1cc[n+](COCCCOC[n+]2ccc(N(C)C)cc2)cc1.O=S(=O)([N-]S(=O)(=O)C(F)(F)F)C(F)(F)F.O=S(=O)([N-]S(=O)(=O)C(F)(F)F)C(F)(F)F
Out: 37.9

In: For the compound CCOCC [diethyl ether] + CCCCCCCCn1cc[n+](COCCCOC[n+]2ccn(CCCCCCCC)c2C)c1C.N#C[N-]C#N.N#C[N-]C#N , give its reported activity coefficient.
Out: 2.41

In: Please report activity coefficient for the following compound: CO [methanol] + CCCCCCCCn1cc[n+](COCCC)c1C.O=S(=O)([N-]S(=O)(=O)C(F)(F)F)C(F)(F)F
Out: 0.98

In: Write down activity coefficient measured for item CC1CCCCC1 [methylcyclohexane] + CCCCCCCCn1cc[n+](COCCCOC[n+]2ccn(CCCCCCCC)c2C)c1C.O=S(=O)([N-]S(=O)(=O)C(F)(F)F)C(F)(F)F.O=S(=O)([N-]S(=O)(=O)C(F)(F)F)C(F)(F)F
Out: 2.94

In: Indicate the recorded activity coefficient value for this compound: CCCCO [butan-1-ol] + CCCOC[n+]1ccn(C)c1.O=S(=O)([N-]S(=O)(=O)C(F)(F)F)C(F)(F)F
Out: 2.37

In: Answer with the recorded activity coefficient of C1COCCO1 [1,4-dioxane] + CCCOC[n+]1ccc(N(C)C)cc1.O=S(=O)([N-]S(=O)(=O)C(F)(F)F)C(F)(F)F only.
Out: 0.56

In: Tell me its activity coefficient given CC(C)CO [2-methyl-1-propanol] + CCCOC[n+]1ccn(Cc2ccccc2)c1.F[B-](F)(F)F as the entry.
Out: 2.86
